Data credit: patent US20200338209A1

Entries and their measured ka (1/Ms) cynoB7-H3 follow.
System: cyno B7-H3
Sequence (as listed by the source): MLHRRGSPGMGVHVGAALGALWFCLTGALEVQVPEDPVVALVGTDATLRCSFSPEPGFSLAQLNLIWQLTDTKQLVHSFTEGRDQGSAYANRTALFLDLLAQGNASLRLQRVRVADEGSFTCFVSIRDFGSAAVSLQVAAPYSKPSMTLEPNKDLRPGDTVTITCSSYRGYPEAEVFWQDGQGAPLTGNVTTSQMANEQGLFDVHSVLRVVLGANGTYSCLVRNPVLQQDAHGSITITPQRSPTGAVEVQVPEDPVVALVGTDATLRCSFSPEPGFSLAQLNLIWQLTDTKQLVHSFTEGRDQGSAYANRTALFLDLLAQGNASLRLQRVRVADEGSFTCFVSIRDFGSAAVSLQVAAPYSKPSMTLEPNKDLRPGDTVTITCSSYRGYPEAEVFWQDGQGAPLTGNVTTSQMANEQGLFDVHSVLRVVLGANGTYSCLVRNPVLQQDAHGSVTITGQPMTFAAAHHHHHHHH
Assay: Biacore T200 SPR binding kinetics, mAb capture, soluble ECD of cyno B7-H3
Set-up: species or system cynomolgus monkey
Details: 1:1 binding model

Molecule	Unit Of Measurement	ka (1/Ms) cynoB7-H3
Ab4: murine anti-B7-H3 mAbs; mouse hybridoma derived (antibody, V domains shown) VH: QVQLQQPGAELVKPGASVKLSCKASGYSFTSYWMHWVKQRPGQGLEWIGMIHPNSGSNNYNEKFKSKATLTVDKSSNTAYMQLSSLTSEDSAVYYCARRLGLHFDYWGQGTTLTVSS VL: DIVMTQSQKFMSTPVGDRVSITCKASQNVGTAVAWYQQKPGQSPKLLIYSASNRYTGVPDRFTGSGSGTDFTLTISNMQSEDLADYFCQQYSSYPYTFGGGTKLEIK	M⁻¹ s⁻¹	540000
Ab6: mouse hybridoma derived anti-B7-H3 monoclonal antibodies (mAbs) (antibody, V domains shown) VH: QVQLQQSGAELMKPGASVKISCKATGYTFSRYWIEWVKQRPGHGLEWIGEILPGSGSTNYNEKFKGKATFTADTSSNTAYMQVSSLTSEDSAVHYCARRGYGYVPYALDYWGQGTSVTVSS VL: EIQMTQTTSSLSASLGDRVTISCRASQDISNSLNWYQQKPDGTVNLLIYYTSRLYSGVPSRFSGSGSGTDYSLTISNLEQEDIATYFCQQGNTLPYTFGGGTKLEIK	M⁻¹ s⁻¹	28000
